Biological target: T1, CLL-1 on U937 cells (human, UniProt Q5QGZ9 1-265)
T1 construct: whole, on cells; also called CLEC12A; Clec12A
T1 sequence: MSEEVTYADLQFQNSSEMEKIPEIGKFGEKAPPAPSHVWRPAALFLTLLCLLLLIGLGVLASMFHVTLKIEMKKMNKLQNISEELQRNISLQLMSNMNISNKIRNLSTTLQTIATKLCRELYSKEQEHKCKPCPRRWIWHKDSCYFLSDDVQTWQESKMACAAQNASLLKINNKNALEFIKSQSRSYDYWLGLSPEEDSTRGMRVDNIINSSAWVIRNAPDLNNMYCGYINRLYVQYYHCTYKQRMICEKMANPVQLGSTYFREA
Assay: flow cytometry on U937 cells, clone lysate, anti-cMyc-PE (Table 3 summary)
attribute-measured: % FACS positive (%)
Give bare numbers, in %.

Field: example entries. Status: answers known.
| binder | attribute-measured | observed |
| --- | --- | --- |
| VHH clone 2C8 (VHH, Includes myc and His tags) VHH: QVQLVESGGGLVQAGGSLRLSCAASGSIFAINEINLMGWYRQAPGKQRELVAACASDGNTYYADSVKGRFTISRDNAEKTVYLQMNNLKPDDTAVYYCDANSRGNYYSGQGTLVTVSS | % FACS positive | 73.4 |
| VHH clone 2H3 (VHH, Includes myc and His tags; also called 2H3 VHH-Myc-His; VHH 2H3) VHH: QVQLQESGGGLVQAGGSLRLSCVASGSIRSINVMGWYRQAPGKQRELVAACASDGNTYYADSVKGRFTISRDNAEKTVYLQMNNLKPDDTAVYYCDANSRGNYYSGQGTQVTVSS | % FACS positive | 94.3 |
| VHH clone 2H10 (VHH, includes myc and His tags; also called 1G3) VHH: QVQLQEFGGGLVQAGGSLRLSCAASGSIFAINEINLMGWYRQAPGKQRELVAACASDGNTYYADSVKGRFTISRDNAEKTVYLQMNNLKPDDTAVYYCDANSRGNYYSGQGTQVTVSS | % FACS positive | 85.9 |

The record that follows has no % FACS positive shown yet.
[in] Please give the documented % FACS positive of VHH clone 2F5 (VHH, Includes myc and His tags) VHH: QVQLQQSGGGLAQTGGSLILSCAASGSIFAINEINLMGWYRQAPGKQRELVAACASDGNTYYADSVKGRFTISRDNAEKTVYLQMNNLKPDDTAVYYCDANSRGNYYSGQGTQVTVSS
[out] 72.7
